System tested: Thermomyces lanuginosus CBS 586.94 phytase, purified recombinant, SEQ ID NO:2
Assay text: Steady-state kinetics by substrate titration, assay of inorganic phosphate liberated from corn phytic acid
Measurement setup: estimated; phytate 0.108-1.08 mM with or without 1 mM sodium monobasic phosphate
Measured attribute: Ki

Lab note: molecule O=P([O-])(O)O.[Na+] [phosphate, sodium monobasic phosphate] tested on Thermomyces lanuginosus CBS 586.94 phytase, purified recombinant, SEQ ID NO:2; recorded Ki was > 3 mM
